target.entity: T1, EsCas13d, nuclease-dead (Eubacterium siraeum, UniProt B0MS50, R295A;H300A;R849A;H854A)
T1 sequence: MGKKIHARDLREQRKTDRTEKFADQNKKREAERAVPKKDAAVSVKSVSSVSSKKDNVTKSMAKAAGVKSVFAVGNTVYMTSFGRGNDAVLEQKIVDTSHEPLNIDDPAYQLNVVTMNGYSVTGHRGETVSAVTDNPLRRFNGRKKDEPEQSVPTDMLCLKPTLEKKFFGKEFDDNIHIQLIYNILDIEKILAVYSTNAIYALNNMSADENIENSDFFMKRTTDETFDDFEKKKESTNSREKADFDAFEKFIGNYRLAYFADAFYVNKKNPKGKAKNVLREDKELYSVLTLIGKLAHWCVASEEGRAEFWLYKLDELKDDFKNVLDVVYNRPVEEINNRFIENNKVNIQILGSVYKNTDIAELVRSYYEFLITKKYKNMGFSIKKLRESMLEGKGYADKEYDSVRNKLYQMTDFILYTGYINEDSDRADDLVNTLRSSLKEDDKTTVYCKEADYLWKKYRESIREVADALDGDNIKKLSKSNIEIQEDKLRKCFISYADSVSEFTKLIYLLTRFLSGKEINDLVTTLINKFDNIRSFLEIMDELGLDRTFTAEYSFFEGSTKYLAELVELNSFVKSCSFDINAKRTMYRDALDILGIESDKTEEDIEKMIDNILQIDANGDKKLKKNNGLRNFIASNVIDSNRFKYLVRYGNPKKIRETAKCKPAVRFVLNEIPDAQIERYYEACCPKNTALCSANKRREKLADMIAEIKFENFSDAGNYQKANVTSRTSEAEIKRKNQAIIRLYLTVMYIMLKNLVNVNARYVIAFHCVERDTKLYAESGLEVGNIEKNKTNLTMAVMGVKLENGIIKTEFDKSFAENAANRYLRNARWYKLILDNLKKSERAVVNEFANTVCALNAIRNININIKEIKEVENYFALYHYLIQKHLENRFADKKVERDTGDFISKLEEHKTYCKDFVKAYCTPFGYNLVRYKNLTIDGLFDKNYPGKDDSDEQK
procedure.text: crRNA (strand 1, pre-loaded); Mg2+; 40 mM Tris-HCl pH 7.5, 150 mM NaCl, 6 mM MgCl2, 1 mM DTT, 0.1% Tween-20, 0.2 mg/ml BSA; 25 C; 10 min per concentration, then washed
condition.notes: tags: His6-TwinStrep-SUMO cleaved; N-terminal SNAP kept (SNAP-Surface 488); label: 3' end held by stalled T7 RNA polymerase
observed.property: Kd (nM)
Answer in nM, number only, no unit symbol.

IN: Form field: reported Kd of target 2 MT 5'PFS AGA 3'PFS ACC (mixed) RNA 1: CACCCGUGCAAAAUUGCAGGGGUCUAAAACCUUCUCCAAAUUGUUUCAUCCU RNA 2: GGGAAUGGAUCCACAUCUACGAAUUCAGAAGGAUGAAACAAUUUGGAGAAGACCAGAUCGGAAGAGCACACGU
OUT: 21

IN: State the recorded Kd for this entry: target 2 MT 5'PFS UAU 3'PFS UCA (mixed) RNA 1: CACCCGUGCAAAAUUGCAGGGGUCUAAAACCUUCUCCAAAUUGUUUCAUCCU RNA 2: GGGAAUGGAUCCACAUCUACGAAUUCUAUAGGAUGAAACAAUUUGGAGAAGUCAAGAUCGGAAGAGCACACGU
OUT: 24
